Measured hIP1 GRPR EC50 of individual entries
TARGET_DESC: human GRP receptor (human, UniProt P30550 1-384)
Sequence (P30550 whole entry): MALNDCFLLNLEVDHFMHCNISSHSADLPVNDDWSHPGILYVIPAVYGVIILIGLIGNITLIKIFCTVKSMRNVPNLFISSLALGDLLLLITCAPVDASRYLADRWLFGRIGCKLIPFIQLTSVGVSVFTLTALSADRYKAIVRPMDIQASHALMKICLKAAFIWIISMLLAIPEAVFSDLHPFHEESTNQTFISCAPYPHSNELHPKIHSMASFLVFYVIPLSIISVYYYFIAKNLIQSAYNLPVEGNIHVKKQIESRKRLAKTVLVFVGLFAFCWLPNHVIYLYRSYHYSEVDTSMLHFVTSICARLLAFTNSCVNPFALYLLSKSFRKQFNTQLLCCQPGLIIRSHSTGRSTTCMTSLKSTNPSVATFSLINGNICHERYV
MEASUREMENT_PROTOCOL: cell-based or functional assay
Starred links: 1 amine or outer side, 2 acyl side, 3 side chain; linkers in the order of their positions; H or OH if unused. Non-standard residues stand in square brackets, D forms with d. No end group written: not given here. *: point of attachment. C20 diacid = O=C(O)CCCCCCCCCCCCCCCCCCC(=O)*; γGlu = O=C(O)[C@H](CCC(=O)[*:2])N[*:1]; Nle = CCCC[C@H](N)C(=O)O; AEEA = NCCOCCOCC(=O)O
QUANTITY_MEASURED: hIP1 GRPR EC50 (nM)

- BINDER: "{C20 diacid}-[γGlu]RRHWAV[dA]HL[Nle] [Peptide 163]"
  MEASURE_UNIT: "nM"
  OBSERVED_RESULT: 88.5
- BINDER: "{C20 diacid}-[γGlu][AEEA][AEEA]GNHWAV[dA]HL[Nle]-NH2 (SMILES CCCC[C@H](NC(=O)[C@H](CC(C)C)NC(=O)[C@H](Cc1c[nH]cn1)NC(=O)[C@@H](C)NC(=O)[C@@H](NC(=O)[C@H](C)NC(=O)[C@H](Cc1c[nH]c2ccccc12)NC(=O)[C@H](Cc1c[nH]cn1)NC(=O)[C@H](CC(N)=O)NC(=O)CNC(=O)COCCOCCNC(=O)COCCOCCNC(=O)CC[C@H](NC(=O)CCCCCCCCCCCCCCCCCCC(=O)O)C(=O)O)C(C)C)C(N)=O) [Peptide 149]"
  MEASURE_UNIT: "nM"
  OBSERVED_RESULT: 1.89
